Molecular target: T1, human MSLN-R2-his protein (human, UniProt Q13421 391-486)
T1 construct: Self-made in HEK293E cells; also called human MSLN-R2 protein; hMSLN-R2-his; not shown: His tag
T1 sequence (Q13421 other isoform, or with tags, fused parts or gaps): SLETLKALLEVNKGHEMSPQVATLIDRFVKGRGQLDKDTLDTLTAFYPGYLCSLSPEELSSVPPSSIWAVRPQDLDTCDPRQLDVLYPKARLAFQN
Assay: ELISA on coated antigen, antibody 0.01 nM
endpoint.name: OD450

Ask | Requested read-out: OD450. Entry: S009-F2.47.1 (antibody, human IgG1, kappa, V domains shown, Human-murine chimeric antibody: murine VH/VL on human IgG1 heavy and kappa light constant regions) VH: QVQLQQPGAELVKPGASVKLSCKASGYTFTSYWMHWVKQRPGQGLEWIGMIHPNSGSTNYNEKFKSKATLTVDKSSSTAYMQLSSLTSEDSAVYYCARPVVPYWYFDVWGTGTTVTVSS VL: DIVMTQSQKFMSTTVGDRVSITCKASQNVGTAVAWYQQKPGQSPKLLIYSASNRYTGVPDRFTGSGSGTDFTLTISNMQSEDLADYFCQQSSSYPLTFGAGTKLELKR
Reply | 0.05 OD450

Ask | Would you kindly repeat that for S009-F2.39.3 (antibody, human IgG1, kappa, V domains shown, Human-murine chimeric antibody: murine VH/VL on human IgG1 heavy and kappa light constant regions) VH: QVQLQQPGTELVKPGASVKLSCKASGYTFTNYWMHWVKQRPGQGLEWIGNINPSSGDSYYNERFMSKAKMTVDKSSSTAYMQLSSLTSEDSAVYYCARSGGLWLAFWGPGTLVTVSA VL: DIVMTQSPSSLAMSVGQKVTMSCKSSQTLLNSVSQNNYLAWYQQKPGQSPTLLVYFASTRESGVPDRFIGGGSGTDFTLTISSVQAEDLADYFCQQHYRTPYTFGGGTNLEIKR ?
Reply | 0.05 OD450

Ask | Another binder to look at: S009-F2.58.8 (antibody, human IgG1, kappa, V domains shown, Human-murine chimeric antibody: murine VH/VL on human IgG1 heavy and kappa light constant regions) VH: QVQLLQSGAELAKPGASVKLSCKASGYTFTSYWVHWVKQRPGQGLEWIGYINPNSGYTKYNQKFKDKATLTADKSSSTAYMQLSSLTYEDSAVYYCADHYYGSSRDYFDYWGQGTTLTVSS VL: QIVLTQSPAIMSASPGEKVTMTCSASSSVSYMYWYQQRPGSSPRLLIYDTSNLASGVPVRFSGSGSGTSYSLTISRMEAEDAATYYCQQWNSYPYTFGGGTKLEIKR
Reply | 0.12 OD450

Ask | Same for S009-F2-56.12 (antibody, human IgG1, kappa, V domains shown, Human-murine chimeric antibody: murine VH/VL on human IgG1 heavy and kappa light constant regions) VH: DVQLQESGPGMVKPSQSLSLTCTVTGYSITSGYDWHWIRHFPGNKLEWMGYISYSGSTNYNPSLKSRISITHDTSKNHFFLKLKSVTTEDTATYYCARGTGPDYWGQGTTLTVSS VL: DIVMTQSQKFMSTSVGDRVSITCKASQNVRTAVAWYQQKPGQSPKALIHLPSNRHTGVPDRFTGSGSGTDFTLTISNVQSEDLADYFCLQHWNYPLTFGGGTKLEIKR
Reply | 0.06 OD450
